Values compiled from patent US20190359723A1.

- system under test: T1, IL-13RA2 huFc (human)
- T1 construct: Expressed in 293F cells, purified on protein A; also called human IL13RA2; recombinant IL-13RA2
- T1 sequence (chain, as listed by the source limits assumed): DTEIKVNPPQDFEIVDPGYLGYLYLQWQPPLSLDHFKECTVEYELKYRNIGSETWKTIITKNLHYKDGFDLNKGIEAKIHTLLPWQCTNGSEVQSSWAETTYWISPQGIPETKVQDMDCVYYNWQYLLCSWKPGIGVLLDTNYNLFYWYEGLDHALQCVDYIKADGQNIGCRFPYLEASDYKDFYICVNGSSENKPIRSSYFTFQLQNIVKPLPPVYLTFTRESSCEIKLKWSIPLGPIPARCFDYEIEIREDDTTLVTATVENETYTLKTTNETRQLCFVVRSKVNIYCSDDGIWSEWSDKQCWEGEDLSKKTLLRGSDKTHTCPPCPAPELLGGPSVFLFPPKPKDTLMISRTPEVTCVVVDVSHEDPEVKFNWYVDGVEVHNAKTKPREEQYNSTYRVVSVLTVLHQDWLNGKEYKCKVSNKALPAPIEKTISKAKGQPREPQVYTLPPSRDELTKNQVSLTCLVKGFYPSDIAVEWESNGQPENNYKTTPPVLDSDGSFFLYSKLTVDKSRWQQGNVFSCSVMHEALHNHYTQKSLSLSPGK
- method: Biacore, induced supernatant of the scFv clone; parent 31C2
measurement label: fold lower dissociation constant Kd than the parent clone

Worked set:
binder="1D8 (scFv) (scFv, also called clone 1D8) scFv: EVQLLESGGGLVQPGGSLRLSCAASGFTFSRYAMNWVRQAPGKGLEWVSAINASGGSTYYADSVKGRFTISRDNSKNTLYLQMNSLRAEDTAVYYCAKVRYGWGAGAFDYWGQGTLVTVSSGGGGSGGGGSGGGGSDIQMTQSPSTLSASVGDRVTITCRASQSISSWLAWYQQKPGKAPKLLIYDASSLESGVPSRFSGSGSGTEFTLTISSLQPDDFATYYCQQYDTYPPITFGQGTKVEIK" result="> 10 times"
binder="1H7 (scFv) (scFv, also called clone 1H7) scFv: EVQLLESGGGLVQPGGSLRLSCAASGFTFRRYAMSWVRQAPGKGLEWVSGISGSGGGTYYADSVKGRFTISRDNSKNTLYLQMNSLRAEDTAVYYCAKVRYGWGAGAFDYWGQGTLVTVSSGGGGSGGGGSGGGGSDIQMTQSPSTLSASVGDRVTITCRASQSISSWLAWYQQKPGKAPKLLIYDASSLESGVPSRFSGSGSGTEFTLTISSLQPDDFATYYCQQYDTYPPITFGQGTKVEIK" result="> 10 times"

State its fold lower dissociation constant Kd than the parent clone for this binder: 1B11 (scFv) (scFv, also called clone 1B11) scFv: EVQLLESGGGLVQPGGSLRLSCAASGFTFSRDALNWVRQAPGKGLEWVSAISGSGGSTFYADSVKGRFTISRDNSKNTLYLQMNSLRAEDTAVYYCAKVRYGWGAGAFDYWGQGTLVTVSSGGGGSGGGGSGGGGSDIQMTQSPSTLSASVGDRVTITCRASQSISSWLAWYQQKPGKAPKLLIYDASSLESGVPSRFSGSGSGTEFTLTISSLQPDDFATYYCQQYDTYPPITFGQGTKVEIK
> 10 times
